Measured values drawn from paper PMC10528910 for this set.

Biological target: syntrophin PDZ domain (UniProt Q61234)
ATTRIBUTE MEASURED: pKd
One number for each entry, as −log10 of the molar value.

Endpoint output: pKd of VKESLV ligand (syntrophin PDZ ligand) (peptide) . Value?
5.71
